biological target: CA IX (Homo sapiens, UniProt Q16790); experiment: biochemical; details: read-out: pKi (exp.) (converted)
Assay Endpoint: Ki (nM)
Report the figure in nM without appending any unit label.

Problem: Quick check: Ki of CCCN(CCC)S(=O)(=O)c1ccc(C(=O)N[C@H](Cc2ccccc2)C(N)=O)cc1 ?
Result: 25

Problem: Quick check: Ki of C[C@H]1O[C@@H](NS(N)(=O)=O)[C@@H](O)[C@H](O)[C@H]1O ?
Result: 899

Problem: Quick check: Ki of NS(=O)(=O)c1nnc(NC(=O)[C@]23C[C@H]4C[C@H](C[C@H](C4)C2)C3)s1 ?
Result: 6.4

Attribution: paper PMC6151961
